FYI, the data here is from the Human Domainome abundance scans (Beltran et al. 2025).

B1: Zinc finger homeobox protein 3, residues 2244 to 2299; numbered along this chain, Q15911 (parent)
chain: SSRTRFTDYQLRVLQDFFDANAYPKDDEFEQLSNLLNLPTRVIVVWFQNARQKARK

Variants of: B1
Assay: abundance fitness (aPCA) (normalised: wild type 0, dead -1); higher = more abundant; growth selection in yeast, the domain comes from the species named
Settings: Homo sapiens
So I've got a bunch of variants here, and I need their abundance fitness values.
Answers are plain numbers.

mutationString | obsValue
D16F | -0.596
N21P | -0.74
L38F | -0.522
L36W | -0.811
T4R | -0.388

# batch size: 3; output abundance fitness per entry
1. P39Q
2. A20N
3. T4Q

-0.028
0.24
-0.08

# batch size: 2; output abundance fitness per entry
1. L36H
2. F6C

-1.06
-0.345
